For each record, write down the corresponding log10 of Ki.
Assay System: AMP deaminase 3 (Homo sapiens)
Measurement Protocol: Inhibition of recombinant human E-type adenylate deaminase
Friendly reminder: values = log10 of Ki, unit nM.

Given O=C(O)c1cc(CCn2cnc3c2N=CNCC3O)c2cccc(C(F)(F)F)c2c1 (stereo unspecified) , respond with its log10 of Ki.
2.34

Given O=C(O)c1cccc(CCn2cnc3c2N=CNCC3O)c1 (stereo unspecified) , respond with its log10 of Ki.
2.70

Given CCOC(=O)c1cc(CCn2cnc3c2NC=NCC3O)c2c(c1Br)CCCC2 (stereo unspecified) , respond with its log10 of Ki.
3.00

Given O=C(O)c1cc(CCn2cnc3c2N=CNCC3O)c2cc(Br)ccc2c1 (stereo unspecified) , respond with its log10 of Ki.
2.98

Given COc1c(C(=O)O)cc(CCn2cnc3c2NC=NCC3O)c2c1CCCC2 (stereo unspecified) , respond with its log10 of Ki.
1.48

Given COC(=O)c1cc(CCn2cnc3c2NC=NCC3O)c2ccccc2c1 (stereo unspecified) , respond with its log10 of Ki.
3.26

====

Assay System: AMP deaminase 3 (Homo sapiens, UniProt Q01432)
Sequence (Q01432 whole entry): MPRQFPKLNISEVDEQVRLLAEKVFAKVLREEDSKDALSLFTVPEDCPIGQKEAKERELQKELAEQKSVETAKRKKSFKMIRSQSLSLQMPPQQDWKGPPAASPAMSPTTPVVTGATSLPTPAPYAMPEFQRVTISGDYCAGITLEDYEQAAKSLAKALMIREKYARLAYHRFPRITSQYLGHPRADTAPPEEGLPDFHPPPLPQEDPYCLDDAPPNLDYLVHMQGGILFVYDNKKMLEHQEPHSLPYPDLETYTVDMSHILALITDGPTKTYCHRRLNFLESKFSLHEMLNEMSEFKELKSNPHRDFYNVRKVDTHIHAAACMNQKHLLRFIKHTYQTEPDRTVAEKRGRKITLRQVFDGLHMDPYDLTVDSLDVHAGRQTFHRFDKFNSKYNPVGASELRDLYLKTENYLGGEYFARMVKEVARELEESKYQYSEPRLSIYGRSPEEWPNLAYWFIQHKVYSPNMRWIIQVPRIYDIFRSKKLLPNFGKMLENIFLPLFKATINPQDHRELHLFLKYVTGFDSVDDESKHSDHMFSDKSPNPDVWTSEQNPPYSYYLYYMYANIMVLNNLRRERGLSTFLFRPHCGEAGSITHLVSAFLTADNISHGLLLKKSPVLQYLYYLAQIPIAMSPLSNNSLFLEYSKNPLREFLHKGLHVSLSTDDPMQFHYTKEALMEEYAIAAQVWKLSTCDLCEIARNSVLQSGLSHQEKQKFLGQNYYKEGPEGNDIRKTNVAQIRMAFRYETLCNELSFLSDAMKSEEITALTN
Measurement Protocol: Inhibition of recombinant human E-type adenylate deaminase
Exam item: assign Fulfilled to entries whose Ki is below 0.5 µM and Not fulfilled to entries at or above 0.5 µM. Note that a value of exactly 0.5 µM receives Not fulfilled.

Is the reported Ki for O=C(O)c1c(Cl)c2c(c(CCn3cnc4c3N=CNCC4O)c1Cl)CCCC2 (centres undefined) strictly below 0.5 µM?
Fulfilled

Is the reported Ki for O=C(O)c1cc2c(c(CCn3cnc4c3NC=NCC4O)c1)CCCC2 (centres undefined) strictly below 0.5 µM?
Fulfilled

Is the reported Ki for CCOC(=O)c1cc(CCn2cnc3c2N=CNCC3O)c2cc(Br)ccc2c1 (centres undefined) strictly below 0.5 µM?
Not fulfilled

Is the reported Ki for O=C(OCc1ccccc1)c1c(Cl)c2c(c(CCn3cnc4c3NC=NCC4O)c1Cl)CCCC2 (centres undefined) strictly below 0.5 µM?
Fulfilled

Is the reported Ki for O=C(OCc1ccccc1)c1cc2c(c(CCn3cnc4c3N=CNCC4O)c1)CCCC2 (centres undefined) strictly below 0.5 µM?
Not fulfilled

Is the reported Ki for O=C(O)c1cc(CCn2cnc3c2N=CNCC3O)c2c(c1Br)CCCC2 (centres undefined) strictly below 0.5 µM?
Fulfilled

Is the reported Ki for CCOC(=O)c1cc(CCn2cnc3c2NC=NCC3O)c2c(c1OC)CCCC2 (centres undefined) strictly below 0.5 µM?
Not fulfilled

Is the reported Ki for O=C(O)C(CCCCn1cnc2c1NC=NCC2O)Cc1ccccc1 (centres undefined) strictly below 0.5 µM?
Fulfilled

Is the reported Ki for CCOC(=O)c1cc(CCn2cnc3c2NC=NCC3O)c2c(c1OCc1ccccc1)CCCC2 (centres undefined) strictly below 0.5 µM?
Fulfilled

Is the reported Ki for CCOC(=O)c1cc2c(c(CCn3cnc4c3N=CNCC4O)c1)CCCC2 (centres undefined) strictly below 0.5 µM?
Not fulfilled

Is the reported Ki for CCOC(=O)c1cc(CCn2cnc3c2N=CNCC3O)c2cccc(C(F)(F)F)c2c1 (centres undefined) strictly below 0.5 µM?
Not fulfilled

Is the reported Ki for O=C(O)c1cc(CCn2cnc3c2N=CNCC3O)c2c(c1OCc1ccccc1)CCCC2 (centres undefined) strictly below 0.5 µM?
Fulfilled

Is the reported Ki for CCOC(=O)c1cc(CCn2cnc3c2NC=NCC3O)c2c(c1OC(C)C)CCCC2 (centres undefined) strictly below 0.5 µM?
Not fulfilled

Is the reported Ki for O=C(O)c1cc(CCn2cnc3c2NC=NCC3O)c2ccccc2c1 (centres undefined) strictly below 0.5 µM?
Fulfilled

Is the reported Ki for CC(C)Oc1c(C(=O)O)cc(CCn2cnc3c2N=CNCC3O)c2c1CCCC2 (centres undefined) strictly below 0.5 µM?
Fulfilled

Is the reported Ki for CCOC(=O)c1cc2c(c(CCn3cnc4c3N=CNCC4O)c1OC)CCCC2 (centres undefined) strictly below 0.5 µM?
Not fulfilled

Is the reported Ki for OC[C@H]1O[C@@H](n2cnc3c2N=CNC[C@H]3O)[C@H](O)[C@@H]1O strictly below 0.5 µM?
Not fulfilled

Is the reported Ki for COc1c(C(=O)O)cc2c(c1CCn1cnc3c1NC=NCC3O)CCCC2 (centres undefined) strictly below 0.5 µM?
Fulfilled
